- system_tested: 5-hydroxytryptamine receptor 1B (Homo sapiens) (UniProt P28222)
- Sequence (P28222 whole entry, looked up): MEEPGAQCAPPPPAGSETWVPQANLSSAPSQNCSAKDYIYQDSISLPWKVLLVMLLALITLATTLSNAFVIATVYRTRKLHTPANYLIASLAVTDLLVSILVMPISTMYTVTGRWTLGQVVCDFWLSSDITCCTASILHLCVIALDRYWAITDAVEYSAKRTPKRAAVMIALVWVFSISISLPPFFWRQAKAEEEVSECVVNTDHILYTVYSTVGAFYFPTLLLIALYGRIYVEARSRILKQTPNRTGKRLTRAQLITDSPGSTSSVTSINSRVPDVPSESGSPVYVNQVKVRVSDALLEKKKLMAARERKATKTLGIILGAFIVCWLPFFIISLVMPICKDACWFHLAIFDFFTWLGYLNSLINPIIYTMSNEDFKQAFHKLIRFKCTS
pKi: −log10 of the molar value.

# molecular_string, pKi
records = [
    ("NCCc1c[nH]c2ccc(OCC(=O)N3CCN(c4ccccc4)CC3)cc12", 9.40),
    ("NCCc1c[nH]c2ccc(OCCCCCC(=O)N3CCN(c4ccc([N+](=O)[O-])cc4)CC3)cc12", 9.33),
    ("N#Cc1ccccc1N1CCN(C(=O)COc2ccc3[nH]cc(CCN)c3c2)CC1", 9.41),
]
